Data provenance is patent US9920061B2.

Each entry below carries its recorded solubility.
- TEST_NAME: Compound solubility in water
- Assay type: physicochemical
PROPERTY_MEASURED: solubility (µg/mL)

MOLECULE: Cc1cc(-c2cccnc2)nc2c(C(=O)N[C@@H](C)c3ccccc3F)ncn12 [III-45]
PROPERTY_MEASURED: solubility
VALUE_UNITS: µg/mL
MEASUREMENT: 5

MOLECULE: Cc1cc(-c2ccc(F)c(F)c2)nc2c(C(=O)NC(C)C3CC3)ncn12 (stereo not drawn) [III-85]
PROPERTY_MEASURED: solubility
VALUE_UNITS: µg/mL
MEASUREMENT: 1.2

MOLECULE: Cc1cc(-c2cccc(F)c2)nc2c(C(=O)NC(C)C3CC3)ncn12 (stereo not drawn) [III-50]
PROPERTY_MEASURED: solubility
VALUE_UNITS: µg/mL
MEASUREMENT: 33.3

MOLECULE: Cc1cc(-c2ncccn2)nc2c(C(=O)NC(C)(C)C3CC3)ncn12 [III-95]
PROPERTY_MEASURED: solubility
VALUE_UNITS: µg/mL
MEASUREMENT: 6.4

MOLECULE: Cc1cc(-c2cccc(Cl)n2)nc2c(C(=O)N[C@@H](C)C3CC3)ncn12 [III-103]
PROPERTY_MEASURED: solubility
VALUE_UNITS: µg/mL
MEASUREMENT: 3.8

MOLECULE: Cc1cc(-c2ccccn2)nc2c(C(=O)NC(c3ccc(F)cc3)C(F)(F)F)ncn12 (stereo not drawn) [III-49]
PROPERTY_MEASURED: solubility
VALUE_UNITS: µg/mL
MEASUREMENT: 6.7

MOLECULE: Cc1cc(-c2cccc(F)c2)nc2c(C(=O)N[C@H](C)C3CC3)ncn12 [III-94]
PROPERTY_MEASURED: solubility
VALUE_UNITS: µg/mL
MEASUREMENT: 8.4

MOLECULE: Cc1cc(-c2ccc(Cl)nc2)nc2c(C(=O)N[C@@H](C)C3CC3)ncn12 [III-75]
PROPERTY_MEASURED: solubility
VALUE_UNITS: µg/mL
MEASUREMENT: 4.9

MOLECULE: Cc1cc(OC2CCC2)nc2c(C(=O)NC(C3CC3)C3CC3)ncn12 [III-180]
PROPERTY_MEASURED: solubility
VALUE_UNITS: µg/mL
MEASUREMENT: 23.3

----------
Each entry below carries its recorded solubility.
- TEST_NAME: Compound solubility in water
- Type: physicochemical
- PARTICULARS: in water
PROPERTY_MEASURED: solubility (µg/mL)

COMPOUND: Cc1cc(-c2cccc3scnc23)nc2c(C(=O)NC(C3CC3)C(F)(F)F)ncn12 (centres unmarked) [IV-47]
MEASUREMENT: 3.8
//
COMPOUND: COc1ccc(F)c(-c2cc(C)n3cnc(C(=O)NC(C)(C)C)c3n2)c1 [IV-103]
MEASUREMENT: 0.7
//
COMPOUND: Cc1cc(-c2cccc(-c3ncco3)c2)nc2c(C(=O)NC(C3CC3)C(F)(F)F)ncn12 (centres unmarked) [IV-60]
MEASUREMENT: 2.3
//
COMPOUND: Cc1cc(-c2cccc3nccn23)nc2c(C(=O)NC(C3CC3)C(F)(F)F)ncn12 (centres unmarked) [IV-25]
MEASUREMENT: 3.3
//
COMPOUND: Cc1cc(-c2cccc3ncnn23)nc2c(C(=O)NC(C3CC3)C(F)(F)F)ncn12 (centres unmarked) [IV-41]
MEASUREMENT: 3.5

----------
- TEST_NAME: Compound solubility in water
- Assay type: physicochemical
Classification field: enter true (1) for solubility values not below 2 µg/mL, false (0) for values below it.

MOLECULE: Cc1cc(-c2ccccc2C(N)=O)nc2c(C(=O)NC(C3CC3)C(F)(F)F)ncn12 (centres unmarked) [III-154]
QUALITATIVE_LABEL: true (1)
//
MOLECULE: COc1cc(-c2cc(C)n3cnc(C(=O)NC(C4CC4)C(F)(F)F)c3n2)ccc1F (centres unmarked) [III-171]
QUALITATIVE_LABEL: false (0)
//
MOLECULE: C#Cc1ccc(NC(=O)c2ncn3c(C4CCCC4)cc(C)nc23)cc1 [III-1]
QUALITATIVE_LABEL: false (0)
//
MOLECULE: Cc1cc(-c2cccc(C#N)c2)nc2c(C(=O)NC(C)(C)C3CC3)ncn12 [III-151]
QUALITATIVE_LABEL: true (1)
//
MOLECULE: Cc1cc(-c2ccc(F)cc2)nc2c(C(=O)NC(C3CC3)C3CC3)ncn12 [III-87]
QUALITATIVE_LABEL: true (1)
//
MOLECULE: Cc1cc(-c2cccnc2)nc2c(C(=O)NC(C)C3CC3)ncn12 (centres unmarked) [III-43]
QUALITATIVE_LABEL: true (1)
//
MOLECULE: C#Cc1cccc(C(NC(=O)c2ncn3c(C)cc(C)nc23)C(F)(F)F)c1 (centres unmarked) [III-3]
QUALITATIVE_LABEL: true (1)
//
MOLECULE: Cc1cc(Oc2ccccn2)nc2c(C(=O)N[C@@H](C)C3CC3)ncn12 [III-121]
QUALITATIVE_LABEL: true (1)
//
MOLECULE: C#CC(C)(C)NC(=O)c1ncn2c(C)cc(-c3cccc(OC4CC4)c3)nc12 [III-186]
QUALITATIVE_LABEL: false (0)
//
MOLECULE: Cc1cc(-c2cc(Cl)ccn2)nc2c(C(=O)N[C@@H](C)C3CC3)ncn12 [III-104]
QUALITATIVE_LABEL: true (1)
//
MOLECULE: Cc1cc(N2CCC(F)(F)CC2)nc2c(C(=O)N[C@@H](C)C3CC3)ncn12 [III-115]
QUALITATIVE_LABEL: true (1)

----------
- TEST_NAME: Compound solubility in water
- Format: physicochemical
Each entry below carries its recorded solubility.

COMPOUND: Cc1cc(-c2ccccc2)nc2c(C(=O)NC(C)C3CC3)ncn12 (stereo not shown)
VALUE_UNITS: µg/mL
solubility: 13.1
//
COMPOUND: Cc1cc(-c2cccnc2)nc2c(C(=O)N[C@H]3CC[C@H](OCC(C)C)CC3)ncn12
VALUE_UNITS: µg/mL
solubility: 16
//
COMPOUND: Cc1cc(OC2CC2)nc2c(C(=O)NC(C3CC3)C3CC3)ncn12
VALUE_UNITS: µg/mL
solubility: 14.3
//
COMPOUND: Cc1cc(C)n2cnc(C(=O)NC(C)(C)CC3CC3)c2n1
VALUE_UNITS: µg/mL
solubility: 12
//
COMPOUND: Cc1cc(-c2cccc(F)c2)nc2c(C(=O)NC(C3CC3)C3CC3)ncn12
VALUE_UNITS: µg/mL
solubility: 1.5
//
COMPOUND: Cc1cc(-c2cccnc2)nc2c(C(=O)NC(C3CC3)C(F)(F)F)ncn12 (stereo not shown)
VALUE_UNITS: µg/mL
solubility: 22.5
//
COMPOUND: C#Cc1cccc([C@H](NC(=O)c2ncn3c(C)cc(C)nc23)C(F)(F)F)c1
VALUE_UNITS: µg/mL
solubility: 5.9

----------
- EXPERIMENTAL_TARGET: glucocerebrosidase (Gcase) (Homo sapiens, UniProt P04062)
- Sequence (P04062 40-536): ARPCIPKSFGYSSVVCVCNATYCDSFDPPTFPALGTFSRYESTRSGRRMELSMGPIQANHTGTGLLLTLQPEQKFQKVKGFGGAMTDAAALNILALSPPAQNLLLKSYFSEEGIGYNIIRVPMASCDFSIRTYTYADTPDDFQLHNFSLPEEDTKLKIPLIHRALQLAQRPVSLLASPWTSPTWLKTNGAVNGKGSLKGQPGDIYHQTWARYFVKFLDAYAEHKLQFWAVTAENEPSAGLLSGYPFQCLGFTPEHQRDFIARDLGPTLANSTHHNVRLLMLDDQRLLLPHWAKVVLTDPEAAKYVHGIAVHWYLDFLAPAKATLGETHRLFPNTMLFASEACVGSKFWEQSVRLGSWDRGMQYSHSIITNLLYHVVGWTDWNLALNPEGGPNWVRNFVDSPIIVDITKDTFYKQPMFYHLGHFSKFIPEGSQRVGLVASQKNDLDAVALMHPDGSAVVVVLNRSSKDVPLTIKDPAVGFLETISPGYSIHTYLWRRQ
- TEST_NAME: Glucocerebrosidase (Gcase) activation assay, 4-methylumbelliferyl-beta-D-glucopyranoside substrate, with saposin C
- Format: biochemical
- PARTICULARS: 0.1 μM test compound; read-out: Percent Gcase Activation 0.1 μM Test Compound

MOLECULE: COc1cc(F)cc(-c2cc(C)n3cnc(C(=O)NC(C4CC4)C4CC4)c3n2)c1
activation at 0.1 µM: > 20%
--
MOLECULE: Cc1cc(OC2CCC2)nc2c(C(=O)NC(C3CC3)C(F)(F)F)ncn12 (stereo not shown)
activation at 0.1 µM: > 20%
--
MOLECULE: Cc1cc(-c2cccc(F)c2)nc2c(C(=O)NC(C)C3CC3)ncn12 (stereo not shown)
activation at 0.1 µM: > 20%
--
MOLECULE: CC[C@H](C)NC(=O)c1ncn2c(C)cc(-c3cccc(F)c3)nc12
activation at 0.1 µM: 10 to 20%
--
MOLECULE: CCCO[C@H]1CC[C@H](NC(=O)c2ncn3c(C)cc(-c4cccnc4)nc23)CC1
activation at 0.1 µM: < 10%
--
MOLECULE: C#CC(C)(C)NC(=O)c1ncn2c(C)cc(-c3cccc(OC)c3)nc12
activation at 0.1 µM: > 20%
--
MOLECULE: COc1cc(-c2cc(C)n3cnc(C(=O)NC(C4CC4)C4CC4)c3n2)ccc1F
activation at 0.1 µM: > 20%
--
MOLECULE: Cc1cc(-c2cccc(F)c2)nc2c(C(=O)NC(C3CC3)C(F)(F)F)ncn12 (stereo not shown)
activation at 0.1 µM: > 20%
--
MOLECULE: Cc1cc(C)n2cnc(C(=O)NC(C)(C)C3CC4(CCC4)C3)c2n1
activation at 0.1 µM: > 20%
--
MOLECULE: Cc1cc(-c2ccccn2)nc2c(C(=O)N[C@H]3CC[C@H](OCC(C)C)CC3)ncn12
activation at 0.1 µM: < 10%
--
MOLECULE: Cc1cc(C)n2cnc(C(=O)NC(C)(C)C3CC3)c2n1
activation at 0.1 µM: < 10%
--
MOLECULE: Cc1cc(C)n2cnc(C(=O)NC(c3ccc(F)cc3)C(F)(F)F)c2n1 (stereo not shown)
activation at 0.1 µM: 10 to 20%
--
MOLECULE: Cc1cc(-c2cc(Cl)ccn2)nc2c(C(=O)N[C@@H](C)C3CC3)ncn12
activation at 0.1 µM: 10 to 20%
